Target: T1, human TIM3, full length, on cells (human, UniProt Q8TDQ0 22-301)
T1 construct: CHO-K1 cells were transfected with a plasmid for full-length human Tim3; other cells carry endogenous TIM3; also called huTIM-3; CHO-Tim3
Assay: FACS, human CD14+ monocytes, donor1, 10 µg/ml
VALUE KIND: Specific Binding [MFI] (MFI)
I only need the number, in MFI, no unit after it.

[[record]]
binder = "anti-TIM3 antibody Tim3_0016 variant (Tim3_0018) (antibody, V domains shown, Mouse monoclonal from hybridoma; also called TIM3-0016 variant (0018); Tim3_0016 variant 0018-A488) VH: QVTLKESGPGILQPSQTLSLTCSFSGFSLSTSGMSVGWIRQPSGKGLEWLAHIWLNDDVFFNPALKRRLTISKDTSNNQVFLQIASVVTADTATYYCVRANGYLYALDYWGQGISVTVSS VL: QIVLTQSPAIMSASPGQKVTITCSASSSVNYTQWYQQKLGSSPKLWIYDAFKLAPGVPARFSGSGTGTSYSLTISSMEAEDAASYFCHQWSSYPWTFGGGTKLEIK"
value_kind = "Specific Binding [MFI]"
result = 2330


Exercise: Query Specific Binding [MFI] for anti-TIM3 antibody Tim3_0028 (antibody, V domains shown, Mouse monoclonal from hybridoma) VH: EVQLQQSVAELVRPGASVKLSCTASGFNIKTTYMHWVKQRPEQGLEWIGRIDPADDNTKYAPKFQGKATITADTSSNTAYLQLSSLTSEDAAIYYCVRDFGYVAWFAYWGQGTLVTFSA VL: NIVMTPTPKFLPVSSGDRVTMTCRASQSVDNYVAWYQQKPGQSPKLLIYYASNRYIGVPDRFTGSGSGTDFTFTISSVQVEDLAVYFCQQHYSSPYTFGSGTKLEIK
Solution: 1350
